assay: gradient 5% acetonitrile 3 min, to 50% in 2 min, to 85% in 15 min, held 3 min, 100 µL/min; details: column: Zorbax Extend-C18 2.1 x 50 mm; eluents: water / acetonitrile, 0.1% formic acid
Entries and their RP-LC retention time
Just the number in s, nothing appended.

# Compound, Reading Unit, RP-LC retention time
data = [
    ("COCc1cc(=O)n(CC(=O)Nc2ccccc2C)c(N)n1", "s", 603),
    ("O=C(Nc1nnc(-c2ccc(C(F)(F)F)cc2)o1)c1cc2ccccc2o1", "s", 885),
    ("Cc1ccc(-c2nc3ncccn3c2Nc2cc(C)cc(C)c2)cc1", "s", 866),
    ("Cc1noc2nc(C)n(CC(=O)NCc3ccc(F)cc3)c(=O)c12", "s", 735),
    ("Cc1oc(C(=O)O)cc1COc1ccc2c(oc(=O)c3ccccc32)c1C", "s", 927),
]

According to the records, this compound `Cc1cccc(C(=O)N2CCc3cc(CNS(=O)(=O)c4ccc5c(c4)CC(=O)N5C)ccc32)c1` displays RP-LC retention time of 836

Record `Cc1ccnc(Nc2nc(-c3ccc(F)c(C)c3)cs2)c1` , field RP-LC retention time: 906

The value of RP-LC retention time measured for the compound `COc1ccc(NS(=O)(=O)c2ccc3c(c2)C(=O)N(C)c2ncccc2O3)c(C)c1` turned out to be 898

Lab book: RP-LC retention time of Cc1oc2ncnc(N3CCCC(C(=O)NCc4cccnc4)C3)c2c1C (centres undefined) noted as 593

---

Item-by-item account of RP-LC retention time
assay: gradient 5% acetonitrile 3 min, to 50% in 2 min, to 85% in 15 min, held 3 min, 100 µL/min; settings: column: Zorbax Extend-C18 2.1 x 50 mm; eluents: water / acetonitrile, 0.1% formic acid
# output: bare number, implied unit s

Answered cases to consult:
# Molecule, Quantity Measured, Reading Unit, Value
records = [
    ("COc1cccc(CNC(=O)N2CCCCC2c2nncn2C)c1 (centres undefined)", "RP-LC retention time", "s", 625),
    ("CC(C)CC(=O)N1CCc2c([nH]c3ccccc23)C12C(=O)N(C)c1ccc(Br)cc12 (centres undefined)", "RP-LC retention time", "s", 1040),
    ("Cc1nc(C2(C)CCN(S(=O)(=O)c3ccc(C(C)C)cc3)CC2)no1", "RP-LC retention time", "s", 1050),
    ("COc1cccc(-n2c(=O)c3sccc3n(Cc3nc(-c4ccc(OC(C)C)cc4)no3)c2=O)c1", "RP-LC retention time", "s", 1080),
    ("Cc1ccc(-c2cc(C(=O)NCCC3=CCCCC3)c(C)[nH]2)cc1C", "RP-LC retention time", "s", 1120),
]

Now look at this entry.
// field: RP-LC retention time; key: `Cc1cc2c(=O)n(CC(=O)Nc3cccc(Cl)c3)c3cccnc3n2n1` ; value = 742

---

test: gradient 5% acetonitrile 3 min, to 50% in 2 min, to 85% in 15 min, held 3 min, 100 µL/min; details: column: Zorbax Extend-C18 2.1 x 50 mm; eluents: water / acetonitrile, 0.1% formic acid
Quantity Measured: RP-LC retention time (s)
Respond numerically; units are s and should not be typed.

Example entries and their recorded answers appear below.
# Molecule, RP-LC retention time [s]
measured = [
    ("CCOC(=O)c1cccc(NC(=O)C2CCCN(c3nnc(C)c4c(C)n(-c5ccccc5)nc34)C2)c1 (stereo not given)", 797),
    ("COc1ccc(Cn2c(C)c(CNCc3ccc(C)o3)c(C(=O)O)c2C)cc1", 714),
    ("CCN1CCN(CCCNC(=O)c2oc3ccc4c(c3c2C)C(O)CC(C)(C)O4)CC1 (stereo not given)", 592),
    ("CC(=O)NC(Cc1c[nH]c2ccccc12)C(=O)O (stereo not given)", 605),
]

Turning to the following molecule.
Just so you know, measured RP-LC retention time for CCc1ccc(N2CC(c3nc4ccccc4n3CC(=O)N3CCCC3)CC2=O)cc1 (stereo not given) came out at 739

---

test: gradient 5% acetonitrile 3 min, to 50% in 2 min, to 85% in 15 min, held 3 min, 100 µL/min; settings: column: Zorbax Extend-C18 2.1 x 50 mm; eluents: water / acetonitrile, 0.1% formic acid
Quantity Measured: RP-LC retention time (s)
Report the value in s with no unit label.

Solved cases (4 shown):
# Compound, Reading Unit, RP-LC retention time
data = [
    ("COc1ccc(-c2cn3c(n2)N(C(=O)c2cccs2)CCC3)cc1", "s", 883),
    ("CC1CCN(C(=O)C2CCCN(c3ccnc(-c4ccc(F)cc4)n3)C2)CC1 (stereo not drawn)", "s", 706),
    ("C[C@H]1CN(C(=O)Nc2cccc(Cl)c2)C[C@@H]1c1nc(-c2cccnc2)no1", "s", 849),
    ("COc1ccc(-c2nc(-c3ccc4c(c3)ncn4CCN3CCCCC3)no2)cc1OC", "s", 630),
]

// next entry
The value of RP-LC retention time measured for the compound `COc1ccc(C2(C(=O)N3CC(c4ncc(C)n4Cc4cccnc4)C3)CC2)cc1` turned out to be 593

---

assay: gradient 5% acetonitrile 3 min, to 50% in 2 min, to 85% in 15 min, held 3 min, 100 µL/min; details: column: Zorbax Extend-C18 2.1 x 50 mm; eluents: water / acetonitrile, 0.1% formic acid
Catalogue of RP-LC retention time values
Return type: number; implicit unit s.

Field: example entries. Status: answers known.
# Molecule, Reading Unit, RP-LC retention time
rows = [
    ("CCCCOc1ccc(-c2ccc(=O)n(Cc3nc(-c4ccccc4Br)no3)n2)cc1", "s", 1260),
    ("COc1ccc(C(=O)Nc2cc(OC)nc(OC)n2)cc1", "s", 798),
    ("c1ccc(CNc2cc(-n3cccn3)ncn2)cc1", "s", 832),
]

Per the record, `Cc1cc(C(=O)Nc2ccc3c(c2)C(=O)N(C)CCO3)no1` has RP-LC retention time of 624

Value of measured RP-LC retention time for the entry CCOC(=O)C1=C(CN2CCC(C(=O)OCC)CC2)NC(=O)NC1c1ccc(F)cc1 (stereo not given) : 650

RP-LC retention time reading for `Cc1nc(CCNS(=O)(=O)Cc2cccc(Cl)c2)no1` : 792

For record `Cc1ccc(-c2cc3c(=O)n(Cc4noc(CN5CCN(C(C)C)CC5)n4)ccn3n2)cc1` the listed RP-LC retention time is 665

Memo: `O=C(c1ccc(F)cc1F)N1CCN(c2ccc3nncn3n2)CC1` , reported RP-LC retention time: 601

Lab note: measured RP-LC retention time of `CCCc1noc(-c2ccnc(-n3ncc(C(=O)Nc4ccc(F)cc4)c3C)c2)n1` was 1120

Lab book: RP-LC retention time of `Cc1nc(-c2csc(S(=O)(=O)N3CCC(C(=O)NCc4ccccc4Cl)CC3)c2)no1` noted as 895

---

assay: gradient 5% acetonitrile 3 min, to 50% in 2 min, to 85% in 15 min, held 3 min, 100 µL/min; details: column: Zorbax Extend-C18 2.1 x 50 mm; eluents: water / acetonitrile, 0.1% formic acid
Quantity Measured: RP-LC retention time (s)
Answer in s, number only, no unit symbol.

Some solved entries appear below for comparison.
# Compound, Reading Unit, RP-LC retention time
data = [
    ("Cc1nc(C(=O)Nc2cccc(F)c2)c(C)n1C1CCN(S(C)(=O)=O)CC1", "s", 706),
    ("NC(=O)c1oc2ccccc2c1NC(=O)C(=O)NCc1ccc2c(c1)OCO2", "s", 758),
    ("CCCNC(=O)CC1CCN(C(=O)c2c(C)[nH]c(C(=O)OCC)c2C)CC1", "s", 653),
]

Given item `O=C(NCCCN1CCCC1)c1nnc(-c2ccc(S(=O)(=O)N3CCCC3)cc2)o1` , the value recorded as its RP-LC retention time is 603

Recorded result, `N#CCc1nc(-c2cc3ccccc3o2)cs1` , RP-LC retention time: 860

The reported value for `CC(C)n1c(=O)sc2cc(S(=O)(=O)N3CCC(C(=O)NC4CCCCCCC4)CC3)ccc21` in terms of RP-LC retention time is 1040

---

test: gradient 5% acetonitrile 3 min, to 50% in 2 min, to 85% in 15 min, held 3 min, 100 µL/min; details: column: Zorbax Extend-C18 2.1 x 50 mm; eluents: water / acetonitrile, 0.1% formic acid
Measured RP-LC retention time values are reported for all entries that follow.
Give the number; s is assumed, so skip it.

Given item CCC(=O)NC(C)c1nc(-c2ccc(Cl)cc2)no1 (stereo not given) , the value recorded as its RP-LC retention time is 823

Field RP-LC retention time (entry `O=S(=O)(NC1CCCCCC1)c1ccc(-c2nnc(C3CCCC3)o2)o1` ) reads 1080

Looking up CS(=O)(=O)N1CCCC(C(=O)Nc2ccc3c(c2)C(=O)NC3=O)C1 (stereo not given) , I see its RP-LC retention time listed as 612

The reported value for CCCN1C(=O)C(C)(C(=O)Nc2ccc(OCC)cc2)Oc2cccnc21 (stereo not given) in terms of RP-LC retention time is 966

Looking up `Cc1ccc(OCC(=O)NCC2CCN(Cc3ccncc3)CC2)cc1` , I see its RP-LC retention time listed as 543

Quick note, RP-LC retention time for `Cn1c(=O)n(C)c2cc(N3CCCC3)c(NC(=O)Cc3ccccc3)cc21` landed at 670

Form field RP-LC retention time, entry `CCC(=O)Nc1ccc2c(c1)nc(CN1CCCC1)n2C(C)C` : 581

Record summary for `COc1ccc2cccc(NC(=O)c3c(F)cccc3Cl)c2n1` : reported RP-LC retention time = 1090

The molecule identified as `CN(C)c1ccc(C(=O)N2CCc3cn(C)c4cccc(c34)C2)cc1` registered its RP-LC retention time at 671

# RP-LC retention time of `Cc1nnc(-c2cccn2CC(=O)NCc2cccc(Br)c2)o1` = 767
